- Test Method Notes: Blocking experiments: inhibition of radiotracer accumulation in the rat by coadministered compound
- Format: in vivo, rat (male Wistar)
- Test Context: rat, blood, iv, rat, iv, 60 min, + (-)-7 HCl 0.53 mg/kg; read-out: radioactivity in blood
Assay Metric: tissue uptake at 1 h (%ID/g)
A number alone suffices; assume %ID/g.

If you can, please state the reported tissue uptake at 1 h value of OC(Cc1ccc([125I])cc1)CN1CCC(c2ccccc2)CC1 (single isomer, unassigned; (-)) [(-)-4-[^125 l]HIPP] .
0.04

----------
- Test Method Notes: Tissue distribution (biodistribution) of radioiodinated compound in the rat
- Test Context: rat, brain, iv, radioactivity in brain, 180 min
Assay Metric: tissue uptake at 3 h (%ID/g)
A number alone suffices; assume %ID/g.

If you can, please state the reported tissue uptake at 3 h value of OC(Cc1ccc([125I])cc1)CN1CCC(c2ccccc2)CC1 (single isomer, unassigned; (+)) [(+)-4-[^125 l]HIPP] .
1.35
